Data credit: paper PMC10692477

test: Pharmacokinetics in ICR mice
Type: in vivo
test_conditions: mouse, serum, po, 10 mg/kg
assay_endpoint: Cmax (ng/mL)

>>> test_value("COc1cc2nccc(Oc3ccc(NC(=O)c4c5n(n(-c6ccc(F)cc6)c4=O)CCCC5)cc3)c2cc1OC [Compound 59]")
2300
>>> test_value("COc1cc2ncnc(Oc3ccc(NC(=O)c4c5n(n(-c6cccc(F)c6)c4=O)CCCC5)cc3F)c2cc1OC [Compound 18]")
2970
>>> test_value("COc1cc2ncnc(Oc3ccc(NC(=O)c4c5n(n(-c6cc(F)ccc6F)c4=O)CCCC5)cc3F)c2cc1OC [Compound 24]")
1490

====

tgt: AXL kinase (Homo sapiens, UniProt P30530)
Sequence (P30530 26-894): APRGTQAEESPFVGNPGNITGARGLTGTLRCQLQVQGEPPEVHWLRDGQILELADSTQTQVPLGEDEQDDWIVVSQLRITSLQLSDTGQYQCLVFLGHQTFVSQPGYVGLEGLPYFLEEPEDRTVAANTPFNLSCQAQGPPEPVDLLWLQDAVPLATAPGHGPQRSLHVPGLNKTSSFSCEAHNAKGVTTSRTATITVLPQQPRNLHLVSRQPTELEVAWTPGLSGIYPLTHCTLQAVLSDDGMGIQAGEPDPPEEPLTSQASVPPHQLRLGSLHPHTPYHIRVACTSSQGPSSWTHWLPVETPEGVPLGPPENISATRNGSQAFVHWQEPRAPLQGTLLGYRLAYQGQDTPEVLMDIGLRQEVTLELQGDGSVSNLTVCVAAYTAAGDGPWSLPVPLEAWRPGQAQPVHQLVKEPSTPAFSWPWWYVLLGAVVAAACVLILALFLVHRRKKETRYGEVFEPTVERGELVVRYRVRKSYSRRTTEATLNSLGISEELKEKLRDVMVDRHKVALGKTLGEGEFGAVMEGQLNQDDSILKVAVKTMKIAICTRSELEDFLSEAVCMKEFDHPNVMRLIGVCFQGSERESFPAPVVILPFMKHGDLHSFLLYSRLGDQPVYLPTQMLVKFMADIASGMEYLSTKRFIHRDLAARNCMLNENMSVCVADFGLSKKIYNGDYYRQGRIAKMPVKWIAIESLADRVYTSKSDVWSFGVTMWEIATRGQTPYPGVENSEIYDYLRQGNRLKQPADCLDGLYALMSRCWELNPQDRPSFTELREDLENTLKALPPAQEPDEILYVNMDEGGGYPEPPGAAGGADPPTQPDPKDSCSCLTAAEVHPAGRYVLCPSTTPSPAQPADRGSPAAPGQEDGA
Threshold-based label: IC50 under 4 nM gives satisfied, IC50 not under 4 nM gives not satisfied.

>>> label("COc1cc2ncnc(Oc3ccc(NC(=O)c4c5n(n(-c6ccc(F)cc6)c4=O)CCCC5)c(F)c3)c2cc1OC")
"not satisfied"
>>> label("COc1cc2ncnc(Oc3ccc(NC(=O)c4c5n(n(-c6ccc(C)cc6)c4=O)CCCC5)cc3F)c2cc1OC")
"not satisfied"
>>> label("COc1cc2ncnc(Oc3ccc(NC(=O)c4c5n(n(-c6ccccc6)c4=O)CCCC5)nc3)c2cc1OC")
"not satisfied"
>>> label("COc1cc2ncnc(Oc3ccc(NC(=O)c4c5n(n(-c6ccc(F)cc6)c4=O)CCCC5)cc3Cl)c2cc1OC")
"not satisfied"
>>> label("COc1cc2nccc(Oc3ccc(NC(=O)c4c5n(n(-c6ccc(F)cc6)c4=O)CCCC5)cc3)c2cc1OC")
"satisfied"

====

test: Pharmacokinetics in ICR mice
Format: in vivo
test_conditions: mouse, serum, iv, 5 mg/kg
assay_endpoint: half-life (h)

>>> test_value("COc1cc2ncnc(Oc3ccc(NC(=O)c4c5n(n(-c6cccc(F)c6)c4=O)CCCC5)cc3F)c2cc1OC [Compound 18]")
10.4
>>> test_value("COc1cc2ncnc(Oc3ccc(NC(=O)c4c5n(n(-c6cc(F)ccc6F)c4=O)CCCC5)cc3F)c2cc1OC [Compound 24]")
3.38
>>> test_value("COc1cc2nccc(Oc3ccc(NC(=O)c4c5n(n(-c6ccc(F)cc6)c4=O)CCCC5)cc3)c2cc1OC [Compound 59]")
1.67

====

# bioavailability per record follows
test: Pharmacokinetics in ICR mice
Format: in vivo
test_conditions: mouse, serum, po, 10 mg/kg
assay_endpoint: bioavailability (%)

>>> test_value("COc1cc2ncnc(Oc3ccc(NC(=O)c4c5n(n(-c6cccc(F)c6)c4=O)CCCC5)cc3F)c2cc1OC [Compound 18]")
22.9
>>> test_value("COc1cc2nccc(Oc3ccc(NC(=O)c4c5n(n(-c6ccc(F)cc6)c4=O)CCCC5)cc3)c2cc1OC [Compound 59]")
36.1
>>> test_value("COc1cc2ncnc(Oc3ccc(NC(=O)c4c5n(n(-c6cc(F)ccc6F)c4=O)CCCC5)cc3F)c2cc1OC [Compound 24]")
13.8

====

Reported inhibition at 0.1 µM values follow for various molecules
tgt: AXL kinase (Homo sapiens)
test: AXL kinase inhibition, ELISA
Format: biochemical
test_conditions: read-out: inhibition rate AXL kinase
assay_endpoint: inhibition at 0.1 µM

>>> test_value("COc1cc2ncnc(Oc3ccc(NC(=O)c4c5n(n(-c6ccccc6F)c4=O)CCCC5)cc3OC)c2cc1OC")
"28%"
>>> test_value("COc1cc2ncnc(Oc3ccc(NC(=O)c4c5n(n(-c6ccccc6F)c4=O)CCCC5)cc3)c2cc1OC")
"47.9%"
>>> test_value("COc1cc2ncnc(Oc3ccc(NC(=O)c4c5n(n(-c6ccc(F)cc6)c4=O)CCCC5)c4ccccc34)c2cc1OC")
"39%"
>>> test_value("COc1cc2ncnc(Oc3ccc(NC(=O)c4c5n(n(-c6ccccc6F)c4=O)CCCC5)c4ccccc34)c2cc1OC")
"41.4%"
>>> test_value("COc1cc2ncnc(Oc3ccc(NC(=O)c4c5n(n(-c6ccccc6)c4=O)CCCC5)cc3C(F)(F)F)c2cc1OC")
"59.4%"
>>> test_value("COc1cc2ncnc(Oc3ccc(NC(=O)c4c5n(n(-c6ccccc6F)c4=O)CCCC5)cc3C)c2cc1OC")
"32.3%"
>>> test_value("COc1cc2ncnc(Oc3ccc(NC(=O)c4c5n(n(-c6ccccc6)c4=O)CCCC5)c4ccccc34)c2cc1OC")
"41%"
>>> test_value("COc1cc2ncnc(Oc3ccc(NC(=O)c4c5n(n(-c6cc(F)ccc6F)c4=O)CCCC5)c4ccccc34)c2cc1OC")
"50.4%"
>>> test_value("COc1cc2nccc(Oc3ccc(NC(=O)c4c5n(n(-c6ccccc6)c4=O)CCCC5)cn3)c2cc1OC")
"50.9%"
>>> test_value("COc1cc2ncnc(Oc3ccc(NC(=O)c4c5n(n(-c6ccccc6)c4=O)CCCC5)cc3OC)c2cc1OC")
"56.4%"
>>> test_value("COc1cc2ncnc(Oc3ccc(NC(=O)c4c5n(n(-c6cc(F)ccc6F)c4=O)CCCC5)cc3C)c2cc1OC")
"35.7%"
>>> test_value("COc1cc2ncnc(Oc3ccc(NC(=O)c4c5n(n(-c6ccccc6)c4=O)CCCC5)cc3C)c2cc1OC")
"23.2%"
>>> test_value("COc1cc2ncnc(Oc3ccc(NC(=O)c4c5n(n(-c6ccc(F)cc6)c4=O)CCCC5)cc3OC)c2cc1OC")
"19.9%"
>>> test_value("O=C(Nc1ccc(Oc2ccn3nccc3n2)cc1)c1c2n(n(-c3ccccc3)c1=O)CCCC2")
"-18.9%"
>>> test_value("COc1nc(OC)nc(Oc2ccc(NC(=O)c3c4n(n(-c5ccccc5)c3=O)CCCC4)cc2)n1")
"-6%"
>>> test_value("COc1cc2ncnc(Oc3ccc(NC(=O)c4c5n(n(-c6ccc(F)cc6)c4=O)CCCC5)cc3C)c2cc1OC")
"15.6%"
>>> test_value("O=C(Nc1ccc(Oc2ccc3nncn3n2)cc1)c1c2n(n(-c3ccccc3)c1=O)CCCC2")
"-17.7%"

====

test: Pharmacokinetics in ICR mice
Type: in vivo
test_conditions: mouse, serum, po, 10 mg/kg
A collection of compounds and their measured AUC(0-inf)
assay_endpoint: AUC(0-inf) (ng·h/mL)

>>> test_value("COc1cc2ncnc(Oc3ccc(NC(=O)c4c5n(n(-c6cc(F)ccc6F)c4=O)CCCC5)cc3F)c2cc1OC [Compound 24]")
14200
>>> test_value("COc1cc2nccc(Oc3ccc(NC(=O)c4c5n(n(-c6ccc(F)cc6)c4=O)CCCC5)cc3)c2cc1OC [Compound 59]")
14900
>>> test_value("COc1cc2ncnc(Oc3ccc(NC(=O)c4c5n(n(-c6cccc(F)c6)c4=O)CCCC5)cc3F)c2cc1OC [Compound 18]")
16000

====

Listed next: entries and their corresponding AUC(0-t).
test: Pharmacokinetics in ICR mice
Type: in vivo
test_conditions: mouse, serum, iv, 5 mg/kg
assay_endpoint: AUC(0-t)

>>> test_value("COc1cc2nccc(Oc3ccc(NC(=O)c4c5n(n(-c6ccc(F)cc6)c4=O)CCCC5)cc3)c2cc1OC")
"20500 ng·h/mL"
>>> test_value("COc1cc2ncnc(Oc3ccc(NC(=O)c4c5n(n(-c6cc(F)ccc6F)c4=O)CCCC5)cc3F)c2cc1OC")
"48900 ng·h/mL"
>>> test_value("COc1cc2ncnc(Oc3ccc(NC(=O)c4c5n(n(-c6cccc(F)c6)c4=O)CCCC5)cc3F)c2cc1OC")
"34800 ng·h/mL"
